- Experimental Target: human recombinant adrenergic α2A receptor (Homo sapiens, UniProt P08913)
- Construct: expressed in transfected cells; host or cells: insect Sf9 cells
- Sequence (P08913 whole entry): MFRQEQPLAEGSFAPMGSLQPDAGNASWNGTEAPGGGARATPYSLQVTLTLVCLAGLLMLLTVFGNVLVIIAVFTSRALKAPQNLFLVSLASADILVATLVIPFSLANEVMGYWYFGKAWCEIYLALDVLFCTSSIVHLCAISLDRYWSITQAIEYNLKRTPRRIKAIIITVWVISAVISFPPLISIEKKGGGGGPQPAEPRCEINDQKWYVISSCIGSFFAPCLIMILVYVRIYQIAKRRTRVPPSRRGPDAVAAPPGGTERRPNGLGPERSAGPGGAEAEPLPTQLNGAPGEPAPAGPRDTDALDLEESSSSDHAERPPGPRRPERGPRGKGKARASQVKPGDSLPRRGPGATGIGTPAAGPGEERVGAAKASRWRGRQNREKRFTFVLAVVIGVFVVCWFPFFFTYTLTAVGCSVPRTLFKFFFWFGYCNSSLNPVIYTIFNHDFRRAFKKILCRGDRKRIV
- Procedure Details: Radioligand binding, adrenergic α2A receptor ([3H]MK-912)
- Condition: 0.1 μM compound; Sf9 cells; 1 nM [3H]MK-912; read-out: Percentage inhibition of ligand binding, Adrenergic α2A
- Protocol: To evaluate in radioligand binding assays the activity of compounds, human recombinant adrenergic α2A receptor expressed in insect Sf9 cells (Uhlen, S. et al, J. Pharmacol. Exp. Ther. 271:1558, 1994) in a modified Tris-HCl buffer (50 mM Tris-HCl, pH 7.4, 12.5 mM MgCl2, 2 mM EDTA) was used. Compounds were incubated with 1 nM [^3H]MK-912 for 60 min at 25° C. […] Receptor proteins were filtered and washed, the filters were then counted to determine [^3H]MK-912 specifically bound. […]
Exercise: state measured inhibition at 0.1 µM for each of the compounds provided.
Give bare numbers, in %.

Please review the entries below; each comes with its answer.
> print(dat)
                                   compound     measurement.label  unit.symbol  value.measured
1  Cc1ccc2c(c1)c1c(n2-c2cscc2-c2cccc3[nH]ncc23)CCN(C)C1 [Compound 41]  inhibition at 0.1 µM            %              87
2  Cc1ccc2c(c1)c1c(n2-c2cccc(-c3ccc4c(ccn4C)c3)c2)CCN(C)C1 [Compound 53]  inhibition at 0.1 µM            %              24
3  Cc1ccc2c(c1)c1c(n2-c2cscc2-c2cnn(C)c2)CCN(C)C1 [Compound 30]  inhibition at 0.1 µM            %              42
4  Cc1ccc2c(c1)c1c(n2-c2cscc2-c2ccnn2C)CCN(C)C1 [Compound No. 150]  inhibition at 0.1 µM            %              55
5  Cc1ccc2c(c1)c1c(n2-c2ccc(-c3cccc4[nH]ncc34)cn2)CCN(C)C1 [Compound No. 147]  inhibition at 0.1 µM            %              46

Lab note: each compound below needs its inhibition at 0.1 µM filled in.
1. Cc1ccc2c(c1)c1c(n2-c2ccc3cnccc3c2)CCN(C)C1 [Compound 38]
2. Cc1ccc2c(c1)c1c(n2-c2cscc2-c2ccc(F)nc2)CCN(C)C1 [Compound 35]

## Result
32
84

Lab note: each compound below needs its inhibition at 0.1 µM filled in.
1. Cc1ccc2c(c1)c1c(n2-c2ccc(-c3cccc4ccccc34)cn2)CCN(C)C1 [Compound No. 141]
2. Cc1ccc2c(c1)c1c(n2-c2ccccc2-c2cc3ccccc3s2)CCN(C)C1 [Compound No. 103]

## Result
[69, 98]
